Reference source: patent US8765779B2

STUDY TARGET: human 5-HT6 receptor (Homo sapiens, UniProt P50406)
Construct: host or cells: CHO-K1 cells, stably transfected; membranes prepared in house
Sequence (P50406 whole entry): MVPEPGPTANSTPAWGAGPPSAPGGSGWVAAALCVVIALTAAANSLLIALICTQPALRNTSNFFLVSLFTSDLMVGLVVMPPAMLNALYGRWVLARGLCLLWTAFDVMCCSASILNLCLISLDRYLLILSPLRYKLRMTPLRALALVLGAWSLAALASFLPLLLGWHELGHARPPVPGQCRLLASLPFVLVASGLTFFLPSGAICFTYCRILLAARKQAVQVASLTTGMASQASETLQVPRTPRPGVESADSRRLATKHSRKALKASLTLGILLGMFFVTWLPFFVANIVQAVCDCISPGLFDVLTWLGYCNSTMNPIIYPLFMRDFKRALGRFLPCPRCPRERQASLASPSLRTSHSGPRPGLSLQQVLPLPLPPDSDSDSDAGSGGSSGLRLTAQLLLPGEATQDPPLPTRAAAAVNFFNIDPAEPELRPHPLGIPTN
ASSAY PROTOCOL: Human 5-HT6 Receptor Binding Assay ([3H]LSD displacement, scintillation beads)
COND: membranes of CHO-K1 cells with recombinant human 5-HT6, 4 nM [3H]LSD; Table 1, class symbols; read-out: h5-HT6 (Ki)
pKi: −log10 of the molar value.
Reported pKi is given for each of the following molecules.

- MOLECULE: "CC1(C)NCCc2c1oc1cc(S(=O)(=O)c3ccc(F)c(F)c3)ccc21"
  STUDY TARGET: "human 5-HT6 receptor (Homo sapiens, UniProt P50406)"
  pKi: "> 6.30"
- MOLECULE: "CC(=O)NCC1(C)NCCc2c1oc1cc(S(=O)(=O)c3cccc(F)c3)ccc21 (stereo not drawn) [Example 492]"
  STUDY TARGET: "human 5-HT6 receptor (Homo sapiens, UniProt P50406)"
  pKi: "> 6.30"
- MOLECULE: "CC(C)c1ccc(S(=O)(=O)c2ccc3oc4c(c3c2)CCNC4)cc1"
  STUDY TARGET: "human 5-HT6 receptor (Homo sapiens, UniProt P50406)"
  pKi: "> 6.30"
- MOLECULE: "O=S(=O)(c1ccc2ccccc2c1)c1ccc2oc3c(c2c1)CCNC3"
  STUDY TARGET: "human 5-HT6 receptor (Homo sapiens, UniProt P50406)"
  pKi: "> 6.30"
- MOLECULE: "Cc1cc(COc2cccc(S(=O)(=O)c3ccc4c(c3)OC3CNCCC43)c2)no1 (stereo not drawn)"
  STUDY TARGET: "human 5-HT6 receptor (Homo sapiens, UniProt P50406)"
  pKi: "> 6.30"
- MOLECULE: "O=S(=O)(c1ccc(-c2ccccc2)cc1)c1ccc2c3c(oc2c1)CNCC3"
  STUDY TARGET: "human 5-HT6 receptor (Homo sapiens, UniProt P50406)"
  pKi: "6.00 to 6.30"
- MOLECULE: "COc1ccccc1NS(=O)(=O)c1ccc2c(c1)C1CCNCC1O2 (stereo not drawn)"
  STUDY TARGET: "human 5-HT6 receptor (Homo sapiens, UniProt P50406)"
  pKi: "< 6.00"
- MOLECULE: "CC12CCNCC1Oc1ccc(S(=O)(=O)c3cc[n+]([O-])cc3)cc12 (racemic)"
  STUDY TARGET: "human 5-HT6 receptor (Homo sapiens, UniProt P50406)"
  pKi: "< 6.00"
- MOLECULE: "O=S(=O)(Cc1ccccc1)Nc1ccc2c(c1)C1CCNCC1O2 (stereo not drawn)"
  STUDY TARGET: "human 5-HT6 receptor (Homo sapiens, UniProt P50406)"
  pKi: "< 6.00"
- MOLECULE: "O=S(=O)(c1cccc2c1OC1CNCCC21)c1cccc2ccccc12 (stereo not drawn)"
  STUDY TARGET: "human 5-HT6 receptor (Homo sapiens, UniProt P50406)"
  pKi: "> 6.30"
- MOLECULE: "O=S(=O)(c1ccc2c(c1)OC1CNCCC21)c1cc(F)cc(F)c1F (stereo not drawn) [Example 400]"
  STUDY TARGET: "human 5-HT6 receptor (Homo sapiens, UniProt P50406)"
  pKi: "> 6.30"
- MOLECULE: "CC(C)c1ccc(S(=O)(=O)c2ccc3c4c(oc3c2)CNCC4)cc1"
  STUDY TARGET: "human 5-HT6 receptor (Homo sapiens, UniProt P50406)"
  pKi: "> 6.30"
- MOLECULE: "Cc1noc(C)c1S(=O)(=O)Oc1ccc2c(c1)C1CCNCC1O2 (stereo not drawn)"
  STUDY TARGET: "human 5-HT6 receptor (Homo sapiens, UniProt P50406)"
  pKi: "< 6.00"
- MOLECULE: "Cc1ccc(C)c(S(=O)(=O)Oc2ccc3c(c2)OC2CNCCC32)c1 (stereo not drawn)"
  STUDY TARGET: "human 5-HT6 receptor (Homo sapiens, UniProt P50406)"
  pKi: "> 6.30"
- MOLECULE: "Cc1ccc(NS(=O)(=O)c2ccc3c(c2)C2CCNCC2O3)cc1F (stereo not drawn)"
  STUDY TARGET: "human 5-HT6 receptor (Homo sapiens, UniProt P50406)"
  pKi: "< 6.00"
- MOLECULE: "Cc1c(S(=O)(=O)Oc2ccc3c(c2)OC2CNCCC32)sc2ccc(Cl)cc12 (stereo not drawn) [Example 687]"
  STUDY TARGET: "human 5-HT6 receptor (Homo sapiens, UniProt P50406)"
  pKi: "> 6.30"
- MOLECULE: "C[C@@H]1CCCN1CCCOc1cc(F)cc(S(=O)(=O)c2ccc3c(c2)OC2CNCCC32)c1 (single isomer, unassigned)"
  STUDY TARGET: "human 5-HT6 receptor (Homo sapiens, UniProt P50406)"
  pKi: "< 6.00"
- MOLECULE: "CC12CCNCC1Oc1ccc(S(=O)(=O)c3cc(F)cc(F)c3)cc12 (stereo not drawn)"
  STUDY TARGET: "human 5-HT6 receptor (Homo sapiens, UniProt P50406)"
  pKi: "> 6.30"
